target: VIM-1 (Pseudomonas aeruginosa (strain ATCC 15692 / DSM 22644 / CIP 104116 / JCM 14847 / LMG 12228 / 1C / PRS 101 / PAO1), UniProt A0A0F7KYQ8); experiment: biochemical; details: fluorescence assay, CCF2-FA substrate, 30 pM enzyme, 2 hours at 25° C.; read-out: VIM-1 IC50
pIC50: −log10 of the molar value.
Please enter class 1 where pIC50 is greater than or equal to 9, and class 0 where it is lower.

Please review the following examples before continuing.
Nc1nc2c(-c3ccc(S(=O)(=O)N[C@@]4(CO)CCNC4)c(S(N)(=O)=O)c3-c3nnn[nH]3)cccc2[nH]1 : class 1
NCC(CN)NS(=O)(=O)c1ccc(-c2ccnc(N)c2)c(-c2nn[nH]n2)c1S(N)(=O)=O : class 0
Nc1ccc(-c2ccc(S(=O)(=O)NC[C@@H]3CCNC3)c(S(N)(=O)=O)c2-c2nn[nH]n2)cn1 : class 1
Nc1ccc(-c2ccc(S(=O)(=O)NC[C@H](N)CO)c(S(N)(=O)=O)c2-c2nn[nH]n2)cn1 : class 1
CNS(=O)(=O)c1ccc(-c2cccc3cn[nH]c23)c(-c2nn[nH]n2)c1S(N)(=O)=O : class 1

Can NCCNS(=O)(=O)c1ccc(-c2cccc(C(=O)NC[C@@H](N)CO)c2N)c(-c2nn[nH]n2)c1S(N)(=O)=O be said to have pIC50 at or above 9?
class 1

API: above_or_equal(metric=pIC50, cutoff=9) for item NCCNS(=O)(=O)c1ccc(-c2cccc(NC(=O)[C@H](N)CO)c2)c(-c2nn[nH]n2)c1S(N)(=O)=O
class 1

Item CN(C[C@@H]1CCCN1)S(=O)(=O)c1ccc(-c2cccc3sc(N)nc23)c(-c2nnn[nH]2)c1S(N)(=O)=O.O=CO [Example 121, formate] with pIC50 of 9 or above?
class 0

Answer whether pIC50 of Nc1cc(-c2ccc(S(=O)(=O)N[C@@H]3CCNC3)c(S(N)(=O)=O)c2-c2nn[nH]n2)ccn1 is greater than or equal to 9.
class 1

Determine whether this compound has pIC50 no lower than 9: CC(C)(CN)NS(=O)(=O)c1ccc(-c2cccc3sc(N)nc23)c(-c2nnn[nH]2)c1S(N)(=O)=O.O=CO [Example 117, formate]
class 1
